Would you mind telling me the reported fluorescence intensity In solution (S) Before antigen binding of each entry?
test system: Anti-CRP antibody(r); assay: Antigen-induced release of fluorescently labeled peptide from immobilized antibody (Table 2), CRP antigen; type: binding; conditions: anti-CRP antibody (rabbit)
Form: value (number only, do not type unit).

Q. Which fluorescence intensity In solution (S) Before antigen binding value belongs to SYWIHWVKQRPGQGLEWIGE [H1, SYWIH WVKQR PGQGL EWIGE] ?
A. 2242

Q. Can you handle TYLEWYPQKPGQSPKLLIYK [L1, TYLEW YPQKP GQSPK LLIYK] next?
A. 741

Q. Can you handle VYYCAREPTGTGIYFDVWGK [H2, VYYCA REPTG TGIYF DVWGK] next?
A. 2099

Q. Can you handle VYYCFQGSHVPFTK [L2, VYYCF QGSHV PFTK] next?
A. 3274

---

test system: Anti-hCG antibody(m); assay: Antigen-induced release of fluorescently labeled peptide from immobilized antibody (Table 2), hCG antigen; assay type: binding; details: anti-hCG antibody (mouse)
MEASURED_PARAMETER: fluorescence intensity In solution (S) After antigen binding
Form: value (number only, do not type unit).

Q. Lab note: need fluorescence intensity In solution (S) After antigen binding for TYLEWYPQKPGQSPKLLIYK [L1, TYLEW YPQKP GQSPK LLIYK] on Anti-hCG antibody(m), anyone have it?
A. 3580

Q. Can you handle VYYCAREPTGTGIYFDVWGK [H2, VYYCA REPTG TGIYF DVWGK] next?
A. 8545

Q. Can you handle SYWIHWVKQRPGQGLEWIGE [H1, SYWIH WVKQR PGQGL EWIGE] next?
A. 3921

Q. Can you handle VYYCFQGSHVPFTK [L2, VYYCF QGSHV PFTK] next?
A. 9402

---

test system: Anti-hCG antibody(m); assay: Antigen-induced release of fluorescently labeled peptide from immobilized antibody (Table 2), hCG antigen; assay type: binding; details: anti-hCG antibody (mouse)
MEASURED_PARAMETER: fluorescence intensity In solution (S) Before antigen binding
Form: value (number only, do not type unit).

Q. Which fluorescence intensity In solution (S) Before antigen binding value belongs to VYYCFQGSHVPFTK [L2, VYYCF QGSHV PFTK] ?
A. 1692

Q. Can you handle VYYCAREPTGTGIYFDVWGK [H2, VYYCA REPTG TGIYF DVWGK] next?
A. 1654

Q. Can you handle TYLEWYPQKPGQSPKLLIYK [L1, TYLEW YPQKP GQSPK LLIYK] next?
A. 1248

Q. Can you handle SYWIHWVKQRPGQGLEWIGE [H1, SYWIH WVKQR PGQGL EWIGE] next?
A. 1281

---

Would you mind telling me the reported fluorescence intensity In solution (S) After antigen binding of each entry?
system: Anti-CRP antibody(r); experiment: Antigen-induced release of fluorescently labeled peptide from immobilized antibody (Table 2), CRP antigen; format: binding; details: anti-CRP antibody (rabbit)
Form: value (number only, do not type unit).

Q. Which fluorescence intensity In solution (S) After antigen binding value belongs to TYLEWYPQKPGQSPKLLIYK [L1, TYLEW YPQKP GQSPK LLIYK] ?
A. 6505

Q. Can you handle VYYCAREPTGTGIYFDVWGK [H2, VYYCA REPTG TGIYF DVWGK] next?
A. 16311

Q. Can you handle VYYCFQGSHVPFTK [L2, VYYCF QGSHV PFTK] next?
A. 32187

Q. Can you handle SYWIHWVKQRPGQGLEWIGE [H1, SYWIH WVKQR PGQGL EWIGE] next?
A. 5659

---

Would you mind telling me the reported Kd of each entry?
biological target: anti-HRP antibody from a rabbit; experiment: One-step immunoassay with varying HRP concentration (FIGS. 7A-7C); format: binding; details: HRP 0.3 to 100 μM; estimated; read-out: Equilibrium dissociation constants
Your answer is read as µM, so omit the unit and give the number.

Q. Lab note: need Kd for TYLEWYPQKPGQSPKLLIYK [L1, TYLEW YPQKP GQSPK LLIYK] on anti-HRP antibody from a rabbit, anyone have it?
A. 3.29

Q. Can you handle VYYCFQGSHVPFTK [L2, VYYCF QGSHV PFTK] next?
A. 1.48

Q. Can you handle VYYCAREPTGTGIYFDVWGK [H2, VYYCA REPTG TGIYF DVWGK] next?
A. 3.11

Q. Can you handle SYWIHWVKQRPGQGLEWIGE [H1, SYWIH WVKQR PGQGL EWIGE] next?
A. 1.65

---

Would you mind telling me the reported fluorescence intensity In solution (S) After antigen binding of each entry?
test system: Anti-HRP antibody(r); assay: Antigen-induced release of fluorescently labeled peptide from immobilized antibody (Table 2), HRP antigen; format: binding, rabbit; conditions: anti-HRP antibody (rabbit), HRP
Form: value (number only, do not type unit).

Q. Lab note: need fluorescence intensity In solution (S) After antigen binding for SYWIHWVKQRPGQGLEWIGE [H1, SYWIH WVKQR PGQGL EWIGE] on Anti-HRP antibody(r), anyone have it?
A. 21965

Q. Can you handle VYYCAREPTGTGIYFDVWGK [H2, VYYCA REPTG TGIYF DVWGK] next?
A. 18128

Q. Can you handle VYYCFQGSHVPFTK [L2, VYYCF QGSHV PFTK] next?
A. 16135

Q. Can you handle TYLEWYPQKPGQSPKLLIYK [L1, TYLEW YPQKP GQSPK LLIYK] next?
A. 12280

---

test system: Anti-HRP antibody(r); assay: Antigen-induced release of fluorescently labeled peptide from immobilized antibody (Table 2), HRP antigen; format: binding, rabbit; details: anti-HRP antibody (rabbit), HRP
MEASURED_PARAMETER: fluorescence intensity Bottom (B) of microplate Before antigen binding
Form: value (number only, do not type unit).

Q. Lab note: need fluorescence intensity Bottom (B) of microplate Before antigen binding for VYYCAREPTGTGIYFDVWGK [H2, VYYCA REPTG TGIYF DVWGK] on Anti-HRP antibody(r), anyone have it?
A. 122230

Q. Can you handle VYYCFQGSHVPFTK [L2, VYYCF QGSHV PFTK] next?
A. 12584

Q. Can you handle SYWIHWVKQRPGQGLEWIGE [H1, SYWIH WVKQR PGQGL EWIGE] next?
A. 11840

Q. Can you handle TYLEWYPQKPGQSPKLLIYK [L1, TYLEW YPQKP GQSPK LLIYK] next?
A. 15608

---

tested on: rabbit anti-HRP antibodies (Fab region); assay: Papain treatment of immobilized antibody with bound fluorescently labeled switching peptide (FIG. 6B); format: binding; settings: after papain treatment compared to before
MEASURED_PARAMETER: decrease of fluorescence intensity at the bottom of the microplate (%)
Your answer is read as %, so omit the unit and give the number.

Q. Which decrease of fluorescence intensity at the bottom of the microplate value belongs to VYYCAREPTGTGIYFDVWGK [H2, VYYCA REPTG TGIYF DVWGK] ?
A. 58.7

Q. Can you handle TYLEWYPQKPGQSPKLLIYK [L1, TYLEW YPQKP GQSPK LLIYK] next?
A. 84.8

Q. Can you handle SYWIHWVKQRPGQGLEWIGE [H1, SYWIH WVKQR PGQGL EWIGE] next?
A. 84.3

Q. Can you handle VYYCFQGSHVPFTK [L2, VYYCF QGSHV PFTK] next?
A. 72.5
